molecular target: T1, human serum albumin (human, UniProt P02768 25-609); test: direct binding ELISA, albumin coated
T1 construct: immobilized on chips or coated on plates elsewhere; also called HSA; HuSA
readout: EC50 (nM)
The answer is to be given in nM; state only the numeric part.

Input PCSK9-PKE2 tandem 4472_B03 (designed binder, not shown: The inter-domain linker; In the real molecule the two parts below are one polypeptide joined by this linker) PCSK9 domain: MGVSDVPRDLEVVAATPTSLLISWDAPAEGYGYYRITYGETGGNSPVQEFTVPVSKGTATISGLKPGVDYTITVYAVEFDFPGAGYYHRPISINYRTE PKE2 domain: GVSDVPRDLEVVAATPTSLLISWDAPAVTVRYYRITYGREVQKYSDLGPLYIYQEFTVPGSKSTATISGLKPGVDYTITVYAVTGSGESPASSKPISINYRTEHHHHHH . Output EC50: 124

Next, consider the following binder.
Reported EC50 for PCSK9-PKE2 tandem Adnectin w/ his tag 4472_C06 (designed binder, also called ATI-1574; ADX_4472_C06) MGVSDVPRDLEVVAATPTSLLISWDAPAEGYGYYRITYGETGGNSPVQEFTVPVSKGTATISGLKPGVDYTITVYAVEFDFPGAGYYHRPISINYRTEPSTPPTPSPSTPPTPSPSGVSDVPRDLEVVAATPTSLLISWDAPAVTVRYYRITYGREVQKYSDLGPLYIYQEFTVPGSKSTATISGLKPGVDYTITVYAVTGSGESPASSKPISINYRTEHHHHHH was 184
